Tested on: LOX IMVI
assay_explanation: NCI tumour cell line growth inhibition, 48 h
Active and inactive are the calls of the source. Cut-off read from the data, not from the text of the source: active = GI50 up to about 1.1 µM and inactive = higher.
Listed molecules paired with reported GI50

molecule | target_system | GI50
O=C(c1ccccc1Br)C(F)(F)F | LOX IMVI | > 100 µM (inactive)
O=[N+]([O-])c1ccc(-c2ccc(/C=N/n3c(S)nnc3-c3ccc(Cl)cc3)o2)cc1 | LOX IMVI | 47.5 µM (inactive)
COc1cc2c[n+](C)c3c4cc(OC)c(OC)cc4ccc3c2cc1OC | LOX IMVI | 54 µM (inactive)
CCOC(=O)C1CCCN1C(=O)c1ccccc1Cl (centres undefined) | LOX IMVI | > 100 µM (inactive)

# input Would you mind telling me what GI50 value was observed for C[C@@H](c1ccccc1)N1CN(C(=O)OCc2ccccc2)C(C)(C)CC1=O ?
# output > 100 µM (inactive)

# input Also, CCOC(=O)Cc1nc2c(N)ncnc2n1C1OC(COC(C)=O)C(OC(C)=O)C1OC(C)=O (centres undefined) please.
# output > 100 µM (inactive)

# input And for O=C(N/N=C\C=C\c1ccc([N+](=O)[O-])o1)C(=O)N/N=C\C=C\c1ccc([N+](=O)[O-])o1 ?
# output 4.94 µM (inactive)

# input Now the molecule CCOC(=O)C(=O)Nc1c(F)cc(F)cc1Br
# output > 100 µM (inactive)

# input Another molecule: COc1nc2c(c(=O)n1C)N=C(c1ccccc1)[C@H](C(CC(=O)c1ccccc1)c1ccccc1)C(c1ccccc1)N2 (some centres undefined)
# output > 100 µM (inactive)

# input # iterate: NC(=S)N1N=C(c2ccccc2O)CC1c1ccccc1 (centres undefined)
# output 16.9 µM (inactive)
